The reported numbers originate from ChEMBL document CHEMBL1131023.

Target sequence: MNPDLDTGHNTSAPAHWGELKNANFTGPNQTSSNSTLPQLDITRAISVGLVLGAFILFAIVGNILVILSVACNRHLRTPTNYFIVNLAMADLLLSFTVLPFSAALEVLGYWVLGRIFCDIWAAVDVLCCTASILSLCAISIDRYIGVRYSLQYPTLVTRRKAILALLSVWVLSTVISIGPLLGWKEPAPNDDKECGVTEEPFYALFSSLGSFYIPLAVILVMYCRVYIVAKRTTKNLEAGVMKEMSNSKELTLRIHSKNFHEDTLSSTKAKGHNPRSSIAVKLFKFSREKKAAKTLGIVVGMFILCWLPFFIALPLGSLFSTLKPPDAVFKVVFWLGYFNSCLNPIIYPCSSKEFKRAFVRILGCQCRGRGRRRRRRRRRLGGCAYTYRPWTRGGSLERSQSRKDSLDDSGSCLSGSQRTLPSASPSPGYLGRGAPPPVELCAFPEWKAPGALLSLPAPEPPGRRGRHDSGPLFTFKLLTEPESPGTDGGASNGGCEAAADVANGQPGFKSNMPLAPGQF
Measured Metric: log10 of Ki (log10 of the value in nM)
// stored as log10 of Ki expressed in nM

Task: Query log10 of Ki for CO/C(O)=C1\C(C)=NC(C)=C(C(=O)NCCCCN2CCC(c3ccccc3)(c3ccccc3)CC2)C1c1ccc([N+](=O)[O-])cc1 (configuration not stated)
Result: 2.13

Further cases:
Task: Query log10 of Ki for CC1=C(C(=O)O)C(c2ccc3c(c2)OCO3)C(C(=O)NCCCN2CCC(c3ccccc3)(c3ccccc3)CC2)=C(C)N1 (configuration not stated)
Result: 2.99

Task: Query log10 of Ki for CNC(=O)C1=C(C)NC(C)=C(C(=O)NCCCN2CCC(c3ccccc3)(c3ccccc3)CC2)C1c1ccc2c(c1)OCO2 (configuration not stated)
Result: 3.25

Task: Query log10 of Ki for CC(=O)C1=C(C)NC(C)=C(C(=O)NCCCN2CCC(c3ccccc3)(c3ccccc3)CC2)C1c1ccc2c(c1)OCO2 (configuration not stated)
Result: 2.58

Task: Query log10 of Ki for CO/C(O)=C1\C(C)=NC(C)=C(C(=O)NCCCN2CCC(c3ccccc3)(c3ccccc3)CC2)C1c1ccc(Cl)cc1 (configuration not stated)
Result: 2.09

Task: Query log10 of Ki for CO/C(O)=C1\C(C)=NC(C)=C(C(=O)NCCCN2CCC(c3ccccc3)(c3ccccc3)CC2)C1c1ccc(Cl)c(Cl)c1 (configuration not stated)
Result: 2.06

Task: Query log10 of Ki for CO/C(O)=C1\C(C)=NC(C)=C(C(=O)N(C)CCCN2CCC(c3ccccc3)(c3ccccc3)CC2)C1c1ccc([N+](=O)[O-])cc1 (configuration not stated)
Result: 2.38

###

- Assay Target: Alpha-1A adrenergic receptor (Homo sapiens, UniProt P35348)
- Sequence (P35348 whole entry): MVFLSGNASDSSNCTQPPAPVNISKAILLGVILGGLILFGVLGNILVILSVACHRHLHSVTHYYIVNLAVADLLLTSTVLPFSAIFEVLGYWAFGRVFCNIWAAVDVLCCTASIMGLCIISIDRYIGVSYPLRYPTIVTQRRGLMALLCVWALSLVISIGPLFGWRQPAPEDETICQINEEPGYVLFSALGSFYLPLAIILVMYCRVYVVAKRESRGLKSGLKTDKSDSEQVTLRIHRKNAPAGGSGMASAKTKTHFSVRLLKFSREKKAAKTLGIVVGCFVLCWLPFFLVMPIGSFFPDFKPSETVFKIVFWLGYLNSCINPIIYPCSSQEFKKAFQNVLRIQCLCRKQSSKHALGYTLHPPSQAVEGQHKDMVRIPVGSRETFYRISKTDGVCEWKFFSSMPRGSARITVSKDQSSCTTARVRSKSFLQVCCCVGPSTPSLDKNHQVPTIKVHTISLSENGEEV
Measured Metric: Ki (nM)
# number only, unit nM dropped from output

Recorded results for 5 compounds are shown here.
Task: Query Ki for CO/C(O)=C1\C(C)=NC(C)=C(C(=O)NCCCN2CCC(c3ccccc3)(c3ccccc3)CC2)C1c1ccc2ccccc2c1 (configuration not stated)
Result: 36.3

Task: Query Ki for CC(=O)C1=C(C)NC(C)=C(C(=O)NCCCN2CCC(c3ccccc3)(c3ccccc3)CC2)C1c1ccc2c(c1)OCO2 (configuration not stated)
Result: 8.91

Task: Query Ki for CC(C)C1=C(C(N)=O)C(c2ccc([N+](=O)[O-])cc2)C(C(=O)NCCCN2CCC(c3ccccc3)(c3ccccc3)CC2)=C(C(C)C)N1 (configuration not stated)
Result: 53.7

Task: Query Ki for CO/C(O)=C1\C(C)=NC(C)=C(C(=O)NCCCN2CCC(c3ccccc3)(c3ccccc3)CC2)C1c1ccc([N+](=O)[O-])c(OC)c1 (configuration not stated)
Result: 1.48

Task: Query Ki for CO/C(O)=C1\C(C)=NC(C)=C(C(=O)NCCCN2CCC(c3ccccc3)(c3ccccc3)CC2)C1c1ccc(OC)cc1 (configuration not stated)
Result: 7.08

Further cases:
Task: Query Ki for CC1=C(C(=O)O)C(c2ccc3c(c2)OCO3)C(C(=O)NCCCN2CCC(c3ccccc3)(c3ccccc3)CC2)=C(C)N1 (configuration not stated)
Result: 316

Task: Query Ki for CNC(=O)C1=C(C)NC(C)=C(C(=O)NCCCN2CCC(c3ccccc3)(c3ccccc3)CC2)C1c1ccc([N+](=O)[O-])cc1 (configuration not stated)
Result: 4.47

###

- Assay Target: Alpha-1D adrenergic receptor (Homo sapiens)
- Sequence (P25100 whole entry): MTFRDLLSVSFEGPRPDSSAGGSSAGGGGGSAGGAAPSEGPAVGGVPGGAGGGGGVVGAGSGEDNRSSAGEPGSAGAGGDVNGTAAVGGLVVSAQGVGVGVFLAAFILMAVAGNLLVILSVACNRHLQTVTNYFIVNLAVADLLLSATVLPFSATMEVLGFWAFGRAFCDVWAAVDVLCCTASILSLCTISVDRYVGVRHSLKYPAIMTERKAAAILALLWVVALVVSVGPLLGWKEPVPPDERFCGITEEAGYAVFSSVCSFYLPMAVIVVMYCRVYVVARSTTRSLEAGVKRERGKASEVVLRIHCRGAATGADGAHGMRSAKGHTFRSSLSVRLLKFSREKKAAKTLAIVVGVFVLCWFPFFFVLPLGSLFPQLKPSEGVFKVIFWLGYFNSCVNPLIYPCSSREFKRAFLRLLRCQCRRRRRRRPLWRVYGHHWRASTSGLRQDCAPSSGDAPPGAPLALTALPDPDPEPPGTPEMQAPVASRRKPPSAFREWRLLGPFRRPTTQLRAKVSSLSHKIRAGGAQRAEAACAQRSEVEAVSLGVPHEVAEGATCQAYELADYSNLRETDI
pKi: −log10 of the molar value.
Classification field: condition met = pKi at or over 6; condition not met = pKi under 6.

Task: Can CO/C(O)=C1\C(C)=NC(C)=C(C(=O)NCCCN2CCC(c3ccccc3)(c3ccccc3)CC2)C1c1ccc(OC)cc1 (configuration not stated) be said to have pKi at or above 6?
Result: condition met

Task: Can CC(=O)C1=C(C)NC(C)=C(C(=O)NCCCN2CCC(c3ccccc3)(c3ccccc3)CC2)C1c1ccc2c(c1)OCO2 (configuration not stated) be said to have pKi at or above 6?
Result: condition met

Task: Can CC1=C(C#N)C(c2ccc([N+](=O)[O-])cc2)C(C(=O)NCCCN2CCC(c3ccccc3)(c3ccccc3)CC2)=C(C)N1 (configuration not stated) be said to have pKi at or above 6?
Result: condition met

Task: Can CC(C)C1=C(C(N)=O)C(c2ccc([N+](=O)[O-])cc2)C(C(=O)NCCCN2CCC(c3ccccc3)(c3ccccc3)CC2)=C(C(C)C)N1 (configuration not stated) be said to have pKi at or above 6?
Result: condition met

Task: Can CC1=C(C(=O)O)C(c2ccc3c(c2)OCO3)C(C(=O)NCCCN2CCC(c3ccccc3)(c3ccccc3)CC2)=C(C)N1 (configuration not stated) be said to have pKi at or above 6?
Result: condition not met

###

# Ki annotations
- Assay Target: Alpha-2B adrenergic receptor (Homo sapiens, UniProt P18089)
- Sequence (P18089 whole entry): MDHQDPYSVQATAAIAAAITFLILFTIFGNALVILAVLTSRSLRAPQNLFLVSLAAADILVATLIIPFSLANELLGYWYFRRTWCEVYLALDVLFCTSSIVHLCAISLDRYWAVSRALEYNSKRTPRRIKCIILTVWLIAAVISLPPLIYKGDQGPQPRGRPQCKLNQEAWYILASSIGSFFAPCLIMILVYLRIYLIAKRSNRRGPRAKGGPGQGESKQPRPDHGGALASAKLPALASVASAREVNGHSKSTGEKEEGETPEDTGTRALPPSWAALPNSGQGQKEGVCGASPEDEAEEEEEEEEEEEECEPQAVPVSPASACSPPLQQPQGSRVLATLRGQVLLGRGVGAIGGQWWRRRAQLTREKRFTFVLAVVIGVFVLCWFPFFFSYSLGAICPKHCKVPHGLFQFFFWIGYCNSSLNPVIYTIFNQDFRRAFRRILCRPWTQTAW
# number only, unit nM dropped from output

Recorded results for 2 compounds are shown here.
Task: Recall the reported Ki of CC1=C(C(N)=O)C(c2ccc([N+](=O)[O-])cc2)C(C(=O)NCCCN2CCC(c3ccccc3)(c3ccccc3)CC2)=C(C)N1 (single isomer, unassigned; (-)) when tested on Alpha-2B adrenergic receptor (Homo sapiens, UniProt P18089).
Result: 282

Task: Recall the reported Ki of CC1=C(C#N)C(c2ccc([N+](=O)[O-])cc2)C(C(=O)NCCCN2CCC(c3ccccc3)(c3ccccc3)CC2)=C(C)N1 (stereo not drawn) when tested on Alpha-2B adrenergic receptor (Homo sapiens, UniProt P18089).
Result: 832

Now for a further compound.
Task: Recall the reported Ki of CC1=C(C(N)=O)C(c2ccc([N+](=O)[O-])cc2)C(C(=O)NCCCN2CCC(c3ccccc3)(c3ccccc3)CC2)=C(C)N1 (single isomer, unassigned; (+)) when tested on Alpha-2B adrenergic receptor (Homo sapiens, UniProt P18089).
Result: 407
